procedure_details: Components of the Cytosolic LPS Sensing Pathway: Gene Identification via Genome-wide siRNA Screen;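 also: robust z of the log signal after scaling to non-targeting control siRNA wells of the plate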
conditions_used: RAW264.7 macrophages, IL-1a HTRF, actives lie on both sides, screened at 100 nM (by protocol), cells primed 5 h with Pam3CSK4 first
About 3,700 (7%) of roughly 53,000 sequences were called active.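 The calls were made as follows: active = gene knockdowns whose robust z-score for IL-1 alpha signal is at least 2 or at most -2, so actives lie on both sides; inactive = the rest.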 Shown is part of a subset that was picked to be rich in actives.
Just give me one of these, please: Y for active, N for inactive

Prompt: # outcome recorded in this test, key = GGAGUAUUCAACAUUUGUATT against Trim11
Completion: N

Prompt: # outcome recorded in this test, key = GGAUGCCUGAGUGCUACAUTT against Lsm4
Completion: N

Prompt: # outcome recorded in this test, key = CCAAUUACGGAGAUUGGAATT against Tspan6
Completion: N

Prompt: # outcome recorded in this test, key = GGAUAGAAAAUCUGUGUUUTT against Trim60
Completion: N

Prompt: # outcome recorded in this test, key = GGAGAGAGGACAACUUCUCTT against Mrm1
Completion: N

Prompt: # outcome recorded in this test, key = GGAGGAAAGAAAAGAUCCATT against Tie1
Completion: N

Prompt: # outcome recorded in this test, key = GGAUAUUAUGUCUUUGCUATT against Ints2
Completion: N

Prompt: # outcome recorded in this test, key = GGACAAUAGAUGUGUUUGATT against Ddb2
Completion: N

Prompt: # outcome recorded in this test, key = GGGCCACUGCCAAAUACUATT against 2510009E07Rik
Completion: Y

Prompt: # outcome recorded in this test, key = GCCAUGUGAGACUCUUAUATT against Slc2a9
Completion: N

Prompt: # outcome recorded in this test, key = GGUGAUGAAAUUUAUUGAGTT against Gpn1
Completion: N

Prompt: # outcome recorded in this test, key = GGUGGUCAGGAAAUGAGUCTT against Lrch4
Completion: Y

---

procedure_details: Components of the Cytosolic LPS Sensing Pathway: Gene Identification via Genome-wide siRNA Screen;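 also: robust z of the log signal after scaling to non-targeting control siRNA wells of the plate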
conditions_used: RAW264.7 macrophages, IL-1a HTRF, actives lie on both sides, screened at 100 nM (by protocol), cells primed 5 h with Pam3CSK4 first
Hit rate of the full screen: of about 53,000 sequences, about 3,700 (7%) were called active.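 The calls were made as follows: active = gene knockdowns whose robust z-score for IL-1 alpha signal is at least 2 or at most -2, so actives lie on both sides; inactive = the rest.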 This is one part of a sample in which actives are shown more often than they occur.
Just give me one of these, please: active, inactive

Prompt: # outcome recorded in this test, key = GGAGAUGAUUUUGAACUUCTT against Retreg3
Completion: active

Prompt: # outcome recorded in this test, key = GGAGAAGAGGACAGAAGCCTT against Akt1s1
Completion: inactive

Prompt: # outcome recorded in this test, key = GGAGGAACUCCUAAAGAAGTT against Galntl5
Completion: inactive

Prompt: # outcome recorded in this test, key = GCUUGCUAAGAUUGAGUAUTT against Cerkl
Completion: inactive

Prompt: # outcome recorded in this test, key = CCUGUUCUGUUAUCAACGGTT against Plxdc1
Completion: inactive

Prompt: # outcome recorded in this test, key = GGAGAUCGACCUGUCUAUGTT against Cep164
Completion: inactive

Prompt: # outcome recorded in this test, key = GGAAGAGGACAACCAGCUCTT against Cd82
Completion: inactive

Prompt: # outcome recorded in this test, key = GAAGGCCAAUGAUCGGGAGTT against Neurog3
Completion: active

Prompt: # outcome recorded in this test, key = GCAGUUAUAUGCUCAAGAUTT against Pik3r3
Completion: inactive

Prompt: # outcome recorded in this test, key = GCCUUCCUCCGUUAAUCCATT against Kank2
Completion: inactive

Prompt: # outcome recorded in this test, key = CCUAUGUAUCUCAUCGCUGTT against Sox11
Completion: inactive

Prompt: # outcome recorded in this test, key = GGGACAGAUACUAAACUCUTT against Wfdc2
Completion: active

Prompt: # outcome recorded in this test, key = AUCGUGUUUGCUGUAUUUGTT against Olfr1258
Completion: inactive

Prompt: # outcome recorded in this test, key = CCAAAUGACAGCUAUGGCCTT against Gtf2ird2
Completion: inactive

Prompt: # outcome recorded in this test, key = GGAGAAGAAAACAUCAAGUTT against Hrh3
Completion: active

Prompt: # outcome recorded in this test, key = CGAGUCAAUCAACUUGUCUTT against Olfr54
Completion: inactive

Prompt: # outcome recorded in this test, key = GGAGUGAAGAUCUGAUUGCTT against Aaas
Completion: inactive

Prompt: # outcome recorded in this test, key = GGACUUAAGUACAAAGAUCTT against Sap18
Completion: inactive

Prompt: # outcome recorded in this test, key = GGAUGUUGAACAAAAGAAGTT against Abce1
Completion: inactive

Prompt: # outcome recorded in this test, key = GCCGAGAGAGCCAAUACAATT against Tbc1d16
Completion: inactive

Prompt: # outcome recorded in this test, key = GCCAACCAAAACCUAAGCATT against Gjc1
Completion: inactive

Prompt: # outcome recorded in this test, key = CCCUAAUGAAUGGUCUCAUTT against Tmem74
Completion: inactive

Prompt: # outcome recorded in this test, key = GCUCUAGACAUAUGAGGCUTT against Wee2
Completion: inactive

Prompt: # outcome recorded in this test, key = GAUCAGAUGUUUGGGACUUTT against Olfr512
Completion: active

Prompt: # outcome recorded in this test, key = CGAUUUAAAGUAGUAGUGGTT against Dusp28
Completion: inactive

---

procedure_details: Components of the Cytosolic LPS Sensing Pathway: Gene Identification via Genome-wide siRNA Screen;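 also: robust z of the log signal after scaling to non-targeting control siRNA wells of the plate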
conditions_used: RAW264.7 macrophages, IL-1a HTRF, actives lie on both sides, screened at 100 nM (by protocol), cells primed 5 h with Pam3CSK4 first
The campaign covered roughly 53,000 sequences. About 3,700 (7%) were called active. Shown is part of a subset that was picked to be rich in actives.
Note to self: values exactly at -1 are Yes. So z-score at or above -1 is Yes, below is No.

Prompt: Would you say GGAUCUAGAACAGAAAAUGTT against Stat3 shows z-score at minimum -1?
Completion: No

Prompt: Would you say GGAGUGUGAGGUCCUCUCUTT against Sdsl shows z-score at minimum -1?
Completion: Yes

Prompt: Would you say GGAGGAAAUGAUCACAGCUTT against Ccl20 shows z-score at minimum -1?
Completion: No

Prompt: Would you say GCCUUGACAGAGGUAUUGATT against Ovgp1 shows z-score at minimum -1?
Completion: No

Prompt: Would you say GGAGAAUUGUUUUUACCAGTT against Bbox1 shows z-score at minimum -1?
Completion: Yes

---

procedure_details: Components of the Cytosolic LPS Sensing Pathway: Gene Identification via Genome-wide siRNA Screen;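 also: robust z of the log signal after scaling to non-targeting control siRNA wells of the plate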
conditions_used: RAW264.7 macrophages, IL-1a HTRF, actives lie on both sides, screened at 100 nM (by protocol), cells primed 5 h with Pam3CSK4 first
Experimental: Non-canonical inflammasome activation by cytosolic LPS is a critical component of the host response to Gram-negative bacterial infection, however we lack a comprehensive understanding of the cellular processes that control this pathway. […] Lipofectamine RNAiMAX Transfection Reagent ([…]; Invitrogen) was added in […] serum-free, antibiotic-free media to plate wells using a Thermo Scientific Matrix WellMate and Microplate Stacker. […] The plates were read on an EnVision plate reader (PerkinElmer). […]
Among all 53,000 sequences or so, about 3,700 (7%) were called active. Shown is part of a subset that was picked to be rich in actives.
property_measured: z-score
Just the number, please, no unit attached.

Prompt: Field request: z-score | item: CCUUAUAACUCUUACGUUUTT against Naa50
Completion: -0.169

Prompt: Field request: z-score | item: GGCUUAGGUGUCCGAGAAATT against Wfdc2
Completion: -1.01

Prompt: Field request: z-score | item: GCCUGUAUAGAUGCUAUUCTT against Setd1a
Completion: -0.894

Prompt: Field request: z-score | item: GGUGACCUACAAGAUUUGUTT against Csdc2
Completion: -0.801

Prompt: Field request: z-score | item: CCAACAAUGAUUAAUCAGCTT against Meis1
Completion: -1.38

Prompt: Field request: z-score | item: GGAUAUACAAGCACAAACUTT against Gjc3
Completion: 0.432

Prompt: Field request: z-score | item: GGGAUCAACAUUUACCGAATT against Ablim1
Completion: 0.596

Prompt: Field request: z-score | item: CGUAGACUCCAAGCUCAAUTT against Ddx54
Completion: -1.31

Prompt: Field request: z-score | item: GCCUGUUCUAGGUGACCUATT against Chd3
Completion: 0.236

Prompt: Field request: z-score | item: CCUGAAACAUUCAGUGUCUTT against Apool
Completion: 0.293

Prompt: Field request: z-score | item: GGCUUCUGAUCUUACCUGGTT against Smim12
Completion: 0.683

Prompt: Field request: z-score | item: GGAAAUGAUCUCUUUUGGATT against Bbs2
Completion: -0.734

Prompt: Field request: z-score | item: GGAUUACGCAGAUUCCAUUTT against Rab22a
Completion: -0.474

Prompt: Field request: z-score | item: GUGCUUUCGUGUUUUUCAATT against Klrb1b
Completion: -0.388

Prompt: Field request: z-score | item: GUUUCUCGAAGAGCAUCCUTT against Cyb5a
Completion: 0.732

Prompt: Field request: z-score | item: GUGAAGGCCCAUGGCAAGATT against Hbb-b1
Completion: -0.235

Prompt: Field request: z-score | item: GACUUACUUGCAUCACUGATT against Vmn1r4
Completion: -0.732

Prompt: Field request: z-score | item: GGUAGACUGUGAAAAUGACTT against Ldlr
Completion: -0.6

Prompt: Field request: z-score | item: GGAGUUUGCCAGUCAGAUCTT against Ralgps1
Completion: -2.11

Prompt: Field request: z-score | item: GGAUCAACCACAUCAGCUCTT against Hrh2
Completion: -0.838

Prompt: Field request: z-score | item: GGUGAUGCGAUCUUCUUUATT against Anxa10
Completion: 1.76

Prompt: Field request: z-score | item: GGACAUUCUCUACCGAAUATT against Acsm1
Completion: 2.04

Prompt: Field request: z-score | item: GGAACAAGAAGACUGUGAATT against Pcnt
Completion: -0.519

Prompt: Field request: z-score | item: GGUUUCCAUAUUUGGAUCCTT against Dhx40
Completion: 0.0331

Prompt: Field request: z-score | item: GGAUAAUUAUAGGAAGAGCTT against Ncapd3
Completion: -0.507
